- target desc: mouse melanocortin-5 receptor (mouse, UniProt P41149 1-325)
- Sequence (P41149 whole entry): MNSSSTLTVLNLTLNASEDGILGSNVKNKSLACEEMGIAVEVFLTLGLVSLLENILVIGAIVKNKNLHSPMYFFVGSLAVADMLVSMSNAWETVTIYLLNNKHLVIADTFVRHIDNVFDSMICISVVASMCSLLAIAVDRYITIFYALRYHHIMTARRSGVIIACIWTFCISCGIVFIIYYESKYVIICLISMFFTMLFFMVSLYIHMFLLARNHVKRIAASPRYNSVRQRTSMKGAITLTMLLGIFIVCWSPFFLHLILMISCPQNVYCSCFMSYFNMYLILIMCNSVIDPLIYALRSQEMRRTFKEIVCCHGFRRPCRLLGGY
- experiment notes: cell-based or functional assay
Bridges are numbered along the chain shown (N, C = ends). Where no end group is shown, it is not given here. [ ]: non-standard residue; d: D form.
measure: EC50 (agonist)
Answer format: number, then unit.

Quick check: EC50 (agonist) of YCRF[dF]NAFCY-NH2 (disulfide 2-9; N-terminus assumed; SMILES C[C@@H]1NC(=O)[C@H](CC(N)=O)NC(=O)[C@@H](Cc2ccccc2)NC(=O)[C@H](Cc2ccccc2)NC(=O)[C@H](CCCNC(=N)N)NC(=O)[C@@H](NC(=O)[C@@H](N)Cc2ccc(O)cc2)CSSC[C@@H](C(=O)N[C@@H](Cc2ccc(O)cc2)C(N)=O)NC(=O)[C@H](Cc2ccccc2)NC1=O) [SEQ ID NO:1 (Tyr-c[Cys-Arg-Phe-DPhe-Asn-Ala-Phe-Cys]-Tyr)] ?
239 nM
